- method_notes: Selectivity index, ratio of IC50 for mouse 3T3 cells to IC50 for chloroquine-resistant Plasmodium falciparum W2mef
- Type: toxicity, cell-based, NIH3T3
- stated_conditions: read-out: Ratio IC50
Counter-ions that a name gives are not always drawn.
Each record's class is read off its selectivity ratio using these ranges: low (below 7), moderate (7 to below 20), high (20 or more)

Record excerpt, results attached:
molecule="Cn1cc2c3ccccc3nc-2c2ccccc21 [ISOCRYPTOLEPINE HYDROCHLORIDE]" label_value=low
molecule=Cn1cc2c3cc(Br)ccc3nc-2c2ccccc21 label_value=moderate
molecule=Cn1cc2c3cc(Cl)ccc3nc-2c2ccccc21 label_value=moderate
molecule=Cn1cc2c3ccccc3nc-2c2ccc(Cl)cc21 label_value=moderate
molecule=Cc1ccc2c3cn(C)c4ccccc4c-3nc2c1 label_value=low
molecule=Cn1cc2c3cc(Br)ccc3nc-2c2ccc(Cl)cc21 label_value=high
molecule=Cn1cc2c3cc(Br)ccc3nc-2c2cc(Cl)ccc21 label_value=high
molecule=Cn1cc2c3cc(Br)ccc3nc-2c2cc(Br)ccc21 label_value=high

Switching to the query record.
Looking at Cc1cc2nc3c4ccccc4n(C)cc-3c2cc1Br , which class would you pick?
moderate
